Provenance of the data: ChEMBL document CHEMBL1133958

- Assay System: Beta-galactosidase (Bos taurus)
- Protocol: Percentage inhibition of Beta-galactosidase from Bovine liver at 1 mM concentration
# inhibition >= 30% gives Condition met, anything below gives Condition not met

// below: answered compounds
INSERT INTO measurements (compound, class_name) VALUES
  ('CC(NCC1NCC(O)C1O)C(O)(c1ccccc1)c1ccccc1 (stereo unspecified)', 'Condition met'),
  ('OC(O)CC1NCC(O)C1O (stereo unspecified)', 'Condition met'),
  ('OC1CNC(CNCc2ccccc2)C1O (stereo unspecified)', 'Condition not met'),
  ('OC1CNC(CNCC2CCN(Cc3ccccc3)CC2)C1O (stereo unspecified)', 'Condition met'),
  ('OCC(O)[C@H]1NC[C@H](O)[C@@H]1O (stereo partly specified)', 'Condition met');

Consider now this further compound.
Entry O[C@@H]1CNC[C@@H]1O : is its inhibition no less than 30%?
Condition not met

###

- Assay System: Beta-galactosidase (Bos taurus)
- Sequence (Q58D55 whole entry): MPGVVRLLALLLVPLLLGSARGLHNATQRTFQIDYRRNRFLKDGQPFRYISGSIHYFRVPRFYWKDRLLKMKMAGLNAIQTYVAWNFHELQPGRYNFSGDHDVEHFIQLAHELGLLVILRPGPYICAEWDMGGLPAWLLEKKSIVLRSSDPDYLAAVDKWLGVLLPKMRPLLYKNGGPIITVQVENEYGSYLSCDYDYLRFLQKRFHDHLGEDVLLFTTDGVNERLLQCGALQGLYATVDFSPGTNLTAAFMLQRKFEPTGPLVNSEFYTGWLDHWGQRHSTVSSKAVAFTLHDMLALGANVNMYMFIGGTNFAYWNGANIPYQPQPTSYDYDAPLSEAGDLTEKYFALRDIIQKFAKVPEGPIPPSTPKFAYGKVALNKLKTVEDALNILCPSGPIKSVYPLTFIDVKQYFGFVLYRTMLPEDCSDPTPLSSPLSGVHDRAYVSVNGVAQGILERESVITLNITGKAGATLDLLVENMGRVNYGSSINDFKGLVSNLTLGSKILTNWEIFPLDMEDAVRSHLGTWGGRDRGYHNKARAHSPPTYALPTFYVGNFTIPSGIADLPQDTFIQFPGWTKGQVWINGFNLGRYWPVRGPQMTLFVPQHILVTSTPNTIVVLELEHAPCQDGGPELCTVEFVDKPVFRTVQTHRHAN
Quantity Name: Ki
Answer with the number, then the unit.

Fill in Ki for CC(NCC1NCC(O)C1O)C(O)(c1ccccc1)c1ccccc1 (stereo unspecified) tested with Beta-galactosidase (Bos taurus).
21 µM

###

- Assay System: Beta-glucosidase A (Caldicellulosiruptor saccharolyticus) (UniProt P10482)
- Sequence (P10482 whole entry): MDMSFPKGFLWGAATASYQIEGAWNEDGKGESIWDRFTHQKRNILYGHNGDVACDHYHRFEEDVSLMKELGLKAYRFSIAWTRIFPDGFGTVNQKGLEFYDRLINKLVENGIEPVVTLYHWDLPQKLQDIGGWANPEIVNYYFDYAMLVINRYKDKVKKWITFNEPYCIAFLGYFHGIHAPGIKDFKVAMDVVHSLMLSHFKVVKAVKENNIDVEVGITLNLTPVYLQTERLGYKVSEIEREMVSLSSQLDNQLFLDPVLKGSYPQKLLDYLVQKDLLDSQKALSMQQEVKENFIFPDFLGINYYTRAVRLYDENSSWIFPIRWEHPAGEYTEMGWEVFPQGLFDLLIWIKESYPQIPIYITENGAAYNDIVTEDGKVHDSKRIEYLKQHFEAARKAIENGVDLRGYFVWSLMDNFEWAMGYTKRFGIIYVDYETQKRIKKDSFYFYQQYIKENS
- Protocol: Percentage inhibition of Beta-Glucosidase from Caldocellum saccharol. at 1 mM
Parameter: inhibition. Scope: all listed entries.
# output: bare number, implied unit %

Use the examples below as a reference point.
INSERT INTO assay_data (compound, assay_system, assay_result) VALUES
  ('OC(O)CC1NCC(O)C1O (centres undefined)', 'Beta-glucosidase A (Caldicellulosiruptor saccharolyticus) (UniProt P10482)', 90),
  ('OC1CNC(CNCC2CCN(Cc3ccccc3)CC2)C1O (centres undefined)', 'Beta-glucosidase A (Caldicellulosiruptor saccharolyticus) (UniProt P10482)', 76),
  ('OC1CNC(CNCc2ccco2)C1O (centres undefined)', 'Beta-glucosidase A (Caldicellulosiruptor saccharolyticus) (UniProt P10482)', 75);

Please indicate inhibition recorded for NCC1NCC(O)C1O (centres undefined)
93

###

Measured pIC50 values are reported for all entries that follow.
- Protocol: Inhibitory activity towards Alpha-glucosidase from Baker yeast (isomaltase)
- Design: species or system Saccharomyces cerevisiae
API: returns pIC50 as number; meaning -log10 of concentration in mol/L.

INSERT INTO results (molecule, assay_result) VALUES
  ('OC1CNC(CNCC2CCN(Cc3ccccc3)CC2)C1O (centres undefined)', 3.92),
  ('OC1CNC(CNCn2ccnc2)C1O (centres undefined)', 3.92),
  ('OC1CNC(CNC2CCCC2)C1O (centres undefined)', 3.77);

Answer with reported pIC50 of OC1CNC(CNCc2ccco2)C1O (centres undefined)
4.19

###

- Protocol: Percentage inhibition of Beta-galactosidase from Aspergillus oryzae at 1 mM
Quantity Name: inhibition (%)
Answer in %, number only, no unit symbol.

INSERT INTO results (compound, assay_result) VALUES
  ('O[C@@H]1CNC[C@@H]1O', 53),
  ('OC(O)CC1NCC(O)C1O (centres undefined)', 80),
  ('NCC1NCC(O)C1O (centres undefined)', 60);

Next, consider the following compound.
Could you please provide reported inhibition for OC1CNC(CNCn2ccnc2)C1O (centres undefined) ? Thanks!
24

###

- System: Saccharomyces cerevisiae
- Protocol: Percentage inhibition of Alpha-glucosidase from Baker yeast (isomaltase) at 1 mM
Quantity Name: inhibition

Below, 3 molecules whose answers are already recorded.
INSERT INTO measurements (molecule, assay_result) VALUES
  ('OC1CNC(CNCn2ccnc2)C1O (configuration not stated)', '90%'),
  ('O[C@@H]1CNC[C@@H]1O', '32%'),
  ('OC(O)CC1NCC(O)C1O (configuration not stated)', '28%');

Give the measured inhibition for CC(NCC1NCC(O)C1O)C(O)(c1ccccc1)c1ccccc1 (configuration not stated)
46%

Kindly indicate its recorded inhibition. Item: OC1CNC(CNCc2ccco2)C1O (configuration not stated)
94%

Given the molecule CC(=O)N(Cc1ccccc1)CC1NCC(O)C1O (configuration not stated) , write its reported inhibition.
33%

State its inhibition: C[C@@H](NCC1NCC(O)C1O)c1ccccc1 (some centres not stated)
34%
